assay: Cell viability assay (CellTiter Glo) in the same well as FXR-bla; settings: human, FXR-UAS-bla HEK293T cells
Measured Attribute: IC50 at 16 h (nM)

[[record]]
cpd_smiles = "CC(C)C[C@H](NC(=O)[C@H](Cc1ccccc1)NC(=O)c1cnccn1)B(O)O"
observed_value = 220

[[record]]
cpd_smiles = "C[C@H]1O[C@@H](O[C@H]2[C@@H](O)C[C@H](O[C@H]3[C@@H](O)C[C@H](O[C@H]4CC[C@@]5(C)[C@H](CC[C@@H]6[C@@H]5C[C@@H](O)[C@]5(C)[C@@H](C7=CC(=O)OC7)CC[C@]65O)C4)O[C@@H]3C)O[C@@H]2C)C[C@H](O)[C@@H]1O"
observed_value = 20

[[record]]
cpd_smiles = "CCOC(=O)C1=C(C)NC(C)=C(C(=O)OCC)C1c1ccccc1/C=C/C(=O)OC(C)(C)C"
observed_value = 54400


###

molecular target: peroxisome proliferator-activated receptor delta (PPARδ) (Homo sapiens, UniProt Q03181); assay: PPARδ-bla reporter gene assay (agonist and antagonist modes)
Sequence (Q03181 with tags, fused parts or gaps limits assumed): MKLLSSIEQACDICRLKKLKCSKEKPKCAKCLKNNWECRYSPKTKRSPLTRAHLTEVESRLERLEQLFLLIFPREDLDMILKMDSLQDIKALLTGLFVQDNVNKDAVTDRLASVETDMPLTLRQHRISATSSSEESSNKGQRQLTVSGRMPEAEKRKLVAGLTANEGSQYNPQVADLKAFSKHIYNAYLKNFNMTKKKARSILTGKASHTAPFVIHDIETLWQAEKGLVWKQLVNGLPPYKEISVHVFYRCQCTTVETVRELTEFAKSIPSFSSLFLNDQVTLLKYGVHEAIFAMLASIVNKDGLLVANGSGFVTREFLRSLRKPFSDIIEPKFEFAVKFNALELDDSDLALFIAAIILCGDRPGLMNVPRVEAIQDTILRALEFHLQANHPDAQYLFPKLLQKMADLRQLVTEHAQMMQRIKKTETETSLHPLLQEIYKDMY
Measured Attribute: PPARδ activity

[[record]]
compound = "COc1cccc2c1C(=O)c1c(O)c3c(c(O)c1C2=O)C[C@@](O)(C(=O)CO)C[C@@H]3O[C@H]1C[C@H](N)[C@H](O)[C@H](C)O1"
observed_value = "antagonist response"

[[record]]
compound = "CCOC(=O)C1=C(C)NC(C)=C(C(=O)OCC)C1c1ccccc1/C=C/C(=O)OC(C)(C)C"
observed_value = "activated"

[[record]]
compound = "CC(=O)[C@]1(O)Cc2c(O)c3c(c(O)c2[C@@H](O[C@H]2C[C@H](N)[C@H](O)[C@H](C)O2)C1)C(=O)c1ccccc1C3=O"
observed_value = "antagonist response"

[[record]]
compound = "COC(=O)C1=C(C)NC(COC(N)=O)=C(C(=O)OC(C)C)C1c1cccc(Cl)c1Cl (stereo not shown)"
observed_value = "activated"

[[record]]
compound = "CCOC(=O)C1=C(C)NC(C)=C(C(=O)OC)C1c1cccc(Cl)c1Cl (stereo not shown)"
observed_value = "activated"

[[record]]
compound = "COc1cccc2c1C(=O)c1c(O)c3c(c(O)c1C2=O)C[C@@](O)(C(C)=O)C[C@@H]3O[C@H]1C[C@H](N)[C@H](O)[C@H](C)O1"
observed_value = "antagonist response"

[[record]]
compound = "COc1cccc2c1C(=O)c1c(O)c3c(c(O)c1C2=O)C[C@@](O)(C(=O)CO)C[C@@H]3O[C@H]1C[C@H](N)[C@H](O[C@@H]2CCCCO2)[C@H](C)O1"
observed_value = "antagonist response"


###

target: human FXR (Homo sapiens); test: FXR-bla reporter gene assay, antagonist mode (CDCA-induced transactivation); details: IC50, FXR-bla antagonist mode, Figure 4, primary screen
pIC50: −log10 of the molar value.
Measured Attribute: pIC50

[[record]]
cpd_smiles = "COc1cc2c(c(OC)c1OC)-c1ccc(OC)c(=O)cc1[C@@H](NC(C)=O)CC2"
observed_value = 7.96


###

Each entry below lists one item and its recorded pEC50 value.
target: human FXR (Homo sapiens, UniProt Q96RI1); experiment: FXR-bla reporter gene assay, agonist mode (qHTS)
Sequence (Q96RI1 with tags, fused parts or gaps limits assumed): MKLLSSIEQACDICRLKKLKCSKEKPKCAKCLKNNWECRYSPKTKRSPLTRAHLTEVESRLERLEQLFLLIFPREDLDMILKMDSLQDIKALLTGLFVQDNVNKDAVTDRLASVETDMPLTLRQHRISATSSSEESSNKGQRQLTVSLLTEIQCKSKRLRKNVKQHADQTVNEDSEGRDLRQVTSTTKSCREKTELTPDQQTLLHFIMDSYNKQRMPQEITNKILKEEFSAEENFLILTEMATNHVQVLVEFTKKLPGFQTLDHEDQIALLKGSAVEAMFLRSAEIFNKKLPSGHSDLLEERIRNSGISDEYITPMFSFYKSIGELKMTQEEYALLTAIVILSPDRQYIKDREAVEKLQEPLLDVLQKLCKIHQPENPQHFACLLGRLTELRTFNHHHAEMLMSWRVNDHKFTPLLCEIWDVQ
pEC50: −log10 of the molar value.
Measured Attribute: pEC50

[[record]]
cpd_smiles = "CC1=C2C[C@H]3[C@@H](CC=C4C[C@@H](O)CC[C@@]43C)[C@@H]2CC[C@]12O[C@@H]1C[C@H](C)CN[C@H]1[C@H]2C"
measured_attribute = "pEC50"
observed_value = 4.98

[[record]]
cpd_smiles = "C[C@H](CCC(=O)O)[C@H]1CC[C@H]2[C@@H]3CC[C@@H]4C[C@H](O)CC[C@]4(C)[C@H]3C[C@H](O)[C@]12C"
measured_attribute = "pEC50"
observed_value = 4.33

[[record]]
cpd_smiles = "COc1cccc2c1C(=O)c1c(O)c3c(c(O)c1C2=O)C[C@@](O)(C(=O)CO)C[C@@H]3O[C@H]1C[C@H](N)[C@H](O[C@@H]2CCCCO2)[C@H](C)O1"
measured_attribute = "pEC50"
observed_value = 4.77


###

target: FXR-LBD (Homo sapiens, UniProt Q96RI1)
pIC50: −log10 of the molar value.
Measured Attribute: pIC50

[[record]]
cpd_smiles = "COc1cc2c(c(OC)c1OC)-c1ccc(OC)c(=O)cc1[C@@H](NC(C)=O)CC2"
assay_target = "FXR-LBD (Homo sapiens, UniProt Q96RI1)"
observed_value = 7.52


###

target: FXR-LBD (Homo sapiens, UniProt Q96RI1); construct: The glutathione S-transferase (GST)-tagged FXR-LBD protein; purchased Life Technologies; assay: FXR TR-FRET coactivator recruitment assay, agonist mode; assay type: biochemical; conditions: Table 1; coactivator SRC2-2 recruitment
Measured Attribute: FXR TR-FRET, agonist EC50

[[record]]
cpd_smiles = "CC[C@]1(O)C[C@@H]2CN(CCc3c([nH]c4ccccc34)[C@@](C(=O)OC)(c3cc4c(cc3OC)N(C)[C@H]3[C@@](O)(C(=O)OC)[C@H](OC(C)=O)[C@]5(CC)C=CCN6CC[C@]43[C@@H]65)C2)C1"
measured_attribute = "FXR TR-FRET, agonist EC50"
observed_value = "Inactive"

[[record]]
cpd_smiles = "Cn1cc(C2=C(c3cn(C4CCN(Cc5ccccn5)CC4)c4ccccc34)C(=O)NC2=O)c2ccccc21"
measured_attribute = "FXR TR-FRET, agonist EC50"
observed_value = "Inactive"

[[record]]
cpd_smiles = "OCCN(CCO)c1nc(N2CCCCC2)c2nc(N(CCO)CCO)nc(N3CCCCC3)c2n1"
measured_attribute = "FXR TR-FRET, agonist EC50"
observed_value = "Inactive"


###

biological target: human FXR (Homo sapiens, UniProt Q96RI1); experiment: FXR-bla reporter gene assay, antagonist mode (CDCA-induced transactivation); conditions: Table S1, primary screening; 50 µM CDCA
Outcome: t for FXR antagonist mode Efficacy of at least 70%; f for anything lower.

[[record]]
compound = "COCCOC(=O)C1=C(C)NC(C)=C(C(=O)OC/C=C/c2ccccc2)C1c1cccc([N+](=O)[O-])c1 (stereo not shown)"
class_assignment = "f"

[[record]]
compound = "COC(=O)C1=C(C)NC(C)=C(C(=O)OCC(C)C)C1c1ccccc1[N+](=O)[O-] (stereo not shown)"
class_assignment = "t"

[[record]]
compound = "COC(=O)C1=C(C)NC(C)=C(C(=O)OC2CCCN(Cc3ccccc3)C2)C1c1cccc([N+](=O)[O-])c1 (stereo not shown)"
class_assignment = "t"

[[record]]
compound = "O=c1c(-c2ccc(O)cc2)coc2cc(O)cc(O)c12"
class_assignment = "f"

[[record]]
compound = "COC(=O)C1=C(C)NC(C)=C(C(=O)OCCN2CCN(C(c3ccccc3)c3ccccc3)CC2)C1c1cccc([N+](=O)[O-])c1 (stereo not shown)"
class_assignment = "f"

[[record]]
compound = "CCOC(=O)C1=C(C)NC(C)=C(C(=O)OCC)C1c1ccccc1/C=C/C(=O)OC(C)(C)C"
class_assignment = "f"

[[record]]
compound = "C[C@H](CCC(=O)O)[C@H]1CC[C@H]2[C@@H]3CC[C@@H]4C[C@H](O)CC[C@]4(C)[C@H]3CC[C@]12C"
class_assignment = "t"


###

biological target: human FXR (Homo sapiens); assay: FXR-bla reporter gene assay, antagonist mode (CDCA-induced transactivation)
Measured Attribute: FXR antagonist mode Efficacy

[[record]]
molecule = "CC(C)[C@H](C(=O)OC(C#N)c1cccc(Oc2ccccc2)c1)c1ccc(OC(F)F)cc1 (stereo partly drawn) [Flucythrinate]"
observed_value = 37

[[record]]
molecule = "CC(C)=CC1C(C(=O)OCc2cccc(Oc3ccccc3)c2)C1(C)C (stereo not drawn) [Phenothrin]"
observed_value = 27


###

target: human FXR (Homo sapiens); assay: FXR-bla reporter gene assay, antagonist mode (CDCA-induced transactivation)
pIC50: −log10 of the molar value.
Outcome: Y for pIC50 of at least 5; N for anything lower.

[[record]]
compound = "COC1=CC(=O)C[C@@H](C)[C@]12Oc1c(Cl)c(OC)cc(OC)c1C2=O [Griseofulvin]"
class_assignment = "N"

[[record]]
compound = "COC(=O)C1=C(C)NC(C)=C(C(=O)OCCN2CCN(C(c3ccccc3)c3ccccc3)CC2)C1c1cccc([N+](=O)[O-])c1 (centres unmarked) [Manidipine]"
class_assignment = "N"

[[record]]
compound = "COC(=O)C1=C(C)NC(C)=C(C(=O)OCC(C)C)C1c1ccccc1[N+](=O)[O-] (centres unmarked) [Nisoldipine]"
class_assignment = "N"

[[record]]
compound = "OCCN(CCO)c1nc(N2CCCCC2)c2nc(N(CCO)CCO)nc(N3CCCCC3)c2n1 [Dipyridamole]"
class_assignment = "Y"

[[record]]
compound = "COC(=O)C1=C(C)NC(C)=C(C(=O)OCCN(C)Cc2ccccc2)C1c1cccc([N+](=O)[O-])c1 (centres unmarked) [Nicardipine]"
class_assignment = "N"

[[record]]
compound = "CCc1c(C(=O)NN2CCCCC2)nn(-c2ccc(Cl)cc2Cl)c1-c1ccc(Br)cc1 [Surinabant]"
class_assignment = "Y"

[[record]]
compound = "COC(=O)Nc1nc2ccc(C(=O)c3ccccc3)cc2[nH]1 [Mebendazole]"
class_assignment = "Y"

[[record]]
compound = "COCCOC(=O)C1=C(C)NC(C)=C(C(=O)OC/C=C/c2ccccc2)C1c1cccc([N+](=O)[O-])c1 (centres unmarked) [Cilnidipine]"
class_assignment = "N"

